// data source = patent US8076352B2

- Test system: hypoxia-inducible endogenous VEGF expression in HeLa cells
- assay: Hypoxia-inducible endogenous VEGF expression, VEGF ELISA of conditioned media (dose-response EC50)
- Type: cell-based
- condition.set: Homo sapiens, HeLa cells, hypoxic conditions (1% O2)
outcome.measure: EC50

Solved entries:
* O=C(Oc1ccc(Cl)cc1)N1CCc2c([nH]c3ccc(Cl)cc23)C1c1ccc(F)cc1 (stereo not drawn) [Compound 444] | 8 to 40 nM
* CCCC1c2[nH]c3ccc(Cl)cc3c2CCN1C(=O)OCC (stereo not drawn) [Compound 510] | 40 to 200 nM
* O=C1OCC(COc2ccc(C3c4[nH]c5ccc(Cl)cc5c4CCN3C(=O)Oc3ccc(Cl)cc3)cc2)O1 (stereo not drawn) [Compound 421] | < 8 nM
* O=C(Oc1ccc(F)cc1)N1CCc2c([nH]c3ccc(Cl)cc23)C1c1ccc(OCCCCNCCCn2ccnc2)cc1 (stereo not drawn) [Compound 741] | 40 to 200 nM

# query: EC50 of entry CCOC(=O)N1CCc2c([nH]c3ccc(Br)cc23)C1c1cnc(N(C)C)nc1 (stereo not drawn) [Compound 435]
< 8 nM

# query: EC50 of entry COc1ccc(C2c3[nH]c4ccc(OC)cc4c3CCN2C(=O)Oc2ccc(Cl)cc2)cc1 (stereo not drawn) [Compound 614]
200 to 1000 nM

---

- Test system: hypoxia-inducible endogenous VEGF expression in HeLa cells
- assay: Hypoxia-inducible endogenous VEGF expression, VEGF ELISA of conditioned media (dose-response EC50)
- Assay type: cell-based
- condition.set: Homo sapiens, HeLa cells, hypoxic conditions (1% O2)
pEC50: −log10 of the molar value.
# pEC50 per entry

Solved entries:
- COc1ccc(C2c3[nH]c4ccc(Cl)cc4c3CCN2C(=O)Cc2ccc(Cl)cc2)cc1 (centres unmarked): 7.40 to 8.10
- CCOC(=O)N1CCc2c([nH]c3ccc(Cl)cc23)C1c1ccc(C(=O)N2CCN(C)CC2)cc1 (centres unmarked): 6.70 to 7.40
- CCOC(=O)N1CCc2c([nH]c3ccc(Cl)cc23)C1CC(C)SC (centres unmarked): 7.40 to 8.10
- O=C(Oc1ccc(Cl)cc1)N1CCc2c([nH]c3ccc(Cl)cc23)C1c1ccc(OCCCCN2CCCC2)cc1 (centres unmarked): 7.40 to 8.10
- CCOC(=O)N1CCc2c([nH]c3ccc(Br)cc23)C1c1ccc(C(=O)NCCO)cc1 (centres unmarked): 6.70 to 7.40

# query: pEC50 of entry CCOC(=O)N1CCc2c([nH]c3ccc(Cl)cc23)C1c1ccc(C(=O)N2COCC2(C)C)cc1 (centres unmarked)
7.40 to 8.10

# query: pEC50 of entry O=C(Oc1ccc(F)cc1)N1CCc2c([nH]c3ccc(Cl)cc23)C1c1ccc(OCCCCCCN2CCOCC2)cc1 (centres unmarked)
> 8.10

# query: pEC50 of entry CCOC(=O)N1CCc2c([nH]c3ccc(Cl)cc23)C1c1cccc(C(=O)NCCN2CCOCC2)c1 (centres unmarked)
6.00 to 6.70

---

- Tested on: hypoxia-inducible endogenous VEGF expression in HeLa cells
- assay: Hypoxia-inducible endogenous VEGF expression, VEGF ELISA of conditioned media (dose-response EC50)
- Assay type: cell-based
- condition.set: Homo sapiens, HeLa cells, hypoxic conditions (1% O2)
pEC50: −log10 of the molar value.
outcome.measure: pEC50

Solved entries:
- O=C(Oc1ccc(F)cc1)N1CCc2c([nH]c3ccc(Cl)cc23)C1c1ccc(OCCCCNCCO)cc1 (stereo not shown) [Compound 735]: > 8.10
- CCOC(=O)N1CCc2c([nH]c3ccc(Cl)cc23)C1c1ccc(C(=O)N2CCCN(C)CC2)cc1 (stereo not shown) [Compound 514]: 6.70 to 7.40

# query: pEC50 of entry COCCOc1ccc(C2c3[nH]c4ccc(Cl)cc4c3CCN2C(=O)Oc2ccc(OC)cc2)cc1 (stereo not shown) [Compound 465]
7.40 to 8.10

# query: pEC50 of entry CCC(Br)C(=O)N1CCc2c([nH]c3ccc(Cl)cc23)C1c1ccc(OC)cc1 (stereo not shown) [Compound 559]
6.00 to 6.70

# query: pEC50 of entry CCOC(=O)N1CCc2c([nH]c3ccc(Cl)cc23)C1CC(C)c1ccccc1 (stereo not shown) [Compound 508]
6.70 to 7.40

# query: pEC50 of entry CCOC(=O)N1CCc2c([nH]c3ccc(Br)cc23)C1c1ccc(C(F)(F)F)cc1 (stereo not shown) [Compound 434]
> 8.10

# query: pEC50 of entry O=C(Oc1ccc(Cl)cc1)N1CCc2c([nH]c3ccc(Cl)cc23)C1c1ccc(OCCCCCCN2CCCC2)cc1 (stereo not shown) [Compound 783]
> 8.10

# query: pEC50 of entry CCOC(=O)N1CCc2c([nH]c3ccc(Cl)cc23)C1c1ccc(C(=O)N(C)CCN(C)C)cc1 (stereo not shown) [Compound 563]
< 6.00
